B1: PHTF1 (parent)
chain: SRHLNSQVKKTTTRWCHIVRDSDS

- Variants of: B1
- assay_info: protein stability index of a GFP-peptide fusion (GPS, HEK-293T) (PSI 1-6); higher = more stable;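 further: lentivirally expressed fusions sorted by FACS into six bins by GFP to DsRed ratio, PSI derived from sequencing read proportions per bin multiplied by bin number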
- setup_conditions: c terminus: a fixed tail appended
Rule: protein stability index of 2 or more gives criterion met; anything lower gives criterion not met.

Please review the following examples before continuing.
{"primary_sequence": "SRHLNSQVKKTTTRWCHIVNDSDS", "classification": "criterion not met"}
{"primary_sequence": "SRHLNSQVKKTTKRWCHIVRDSDS", "classification": "criterion not met"}
{"primary_sequence": "SKHLNSQVKKTTTRWCHIVRDSDS", "classification": "criterion met"}
{"primary_sequence": "SDHLNSQVKKTTTRWCHIVRDSDS", "classification": "criterion met"}
{"primary_sequence": "SRHLNSSVKKTTTRWCHIVRDSDS", "classification": "criterion met"}

Given SRHLNSQVKKTTTRNCHIVRDSDS , state whether its protein stability index is at least 2.
criterion met

Please tell me: is the variant SRHLNSQVKKTTTRYCHIVRDSDS at or over 2 in terms of protein stability index?
criterion met

Quick check: does SRHLNSQVKKTQTRWCHIVRDSDS have protein stability index greater than or equal to 2?
criterion met

Tell me whether protein stability index is at least 2 here: SRHLNSQVYKTTTRWCHIVRDSDS
criterion not met

Given SRHLNSQPKKTTTRWCHIVRDSDS , state whether its protein stability index is at least 2.
criterion met

Given SRHLNSQVKKTTVRWCHIVRDSDS , state whether its protein stability index is at least 2.
criterion met

Is reported protein stability index greater than or equal to 2 here: SRHLNSIVKKTTTRWCHIVRDSDS
criterion met

Test whether the variant ERHLNSQVKKTTTRWCHIVRDSDS records protein stability index of 2 or higher.
criterion not met

Hi, just wondering whether SRHLNSQVKKTTTRWCHIVRDSPS shows protein stability index of 2 or higher.
criterion met

API: above_or_equal(metric=protein stability index, cutoff=2) for item SRHLNSQVKKTSTRWCHIVRDSDS
criterion met

Is reported protein stability index greater than or equal to 2 here: SRSLNSQVKKTTTRWCHIVRDSDS
criterion not met
